# System: LN-229
# assay_overview: Effect on LAT-1 expression in human LN229 cells at 50 uM incubated for 2 hrs by Western blot analysis
# Assay type: functional, cell-based
Calls of active or inactive are those of the source. The calls are words filed in the database; no cut-off is given here.
measurement_kind: Activity

Use the examples below as a reference point.
compound	reading
COC(=O)C(Cc1c[nH]c2ccc(B3OC(C)(C)C(C)(C)O3)cc12)NC(C)=O (stereo not given)	inactive
COC(=O)C(N)Cc1c[nH]c2ccc(B3OC(C)(C)C(C)(C)O3)cc12 (stereo not given)	inactive
COC(=O)C(Cc1cn(C(=O)OC(C)(C)C)c2cc(B3OC(C)(C)C(C)(C)O3)ccc12)N(C(=O)OC(C)(C)C)C(=O)OC(C)(C)C (stereo not given)	inactive
N[C@@H](Cc1ccc(B(O)O)cc1)C(=O)O	inactive

Consider COC(=O)C(Cc1cn(C(=O)OC(C)(C)C)c2ccc(B3OC(C)(C)C(C)(C)O3)cc12)N(C(=O)OC(C)(C)C)C(=O)OC(C)(C)C (stereo not given) . Its measured Activity is inactive
